- Study System: T1, human MSLN protein endogenously expressed on OVCAR3 tumor cells (human, UniProt Q13421 296-598)
- T1 construct: whole, on cells; endogenous expression on a tumor cell line; also called human mesothelin
- T1 sequence (Q13421 other isoform, or with tags, fused parts or gaps): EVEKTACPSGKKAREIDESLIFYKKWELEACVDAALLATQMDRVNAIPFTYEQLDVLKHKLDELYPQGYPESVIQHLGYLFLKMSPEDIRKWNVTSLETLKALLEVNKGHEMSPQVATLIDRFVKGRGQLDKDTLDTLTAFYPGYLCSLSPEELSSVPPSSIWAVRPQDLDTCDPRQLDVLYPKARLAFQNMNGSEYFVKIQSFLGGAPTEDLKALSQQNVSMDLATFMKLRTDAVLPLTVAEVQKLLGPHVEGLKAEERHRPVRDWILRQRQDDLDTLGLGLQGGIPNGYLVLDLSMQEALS
- Procedure Details: FACS on OVCAR3 cells;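 note: flow cytometry of chimeric antibody binding to OVCAR3 cells, 2 h on ice, read as cellular mean fluorescence intensity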
Reported Property: Maximum mean fluorescence intensity
Lab note: record the figure alone, no unit after it.

# count of solved cases: 2
>  <Binder>
S009-F8-22.23 (antibody, human IgG1, kappa, V domains shown, human-murine chimeric antibody, human IgG1/kappa constant regions) VH: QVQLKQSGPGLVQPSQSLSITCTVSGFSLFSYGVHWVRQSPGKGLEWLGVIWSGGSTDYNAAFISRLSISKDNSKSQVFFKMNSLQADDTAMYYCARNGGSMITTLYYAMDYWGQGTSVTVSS VL: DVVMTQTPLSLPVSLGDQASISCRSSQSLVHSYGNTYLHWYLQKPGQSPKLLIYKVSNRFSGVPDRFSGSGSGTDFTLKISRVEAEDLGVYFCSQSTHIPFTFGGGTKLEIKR

>  <Maximum mean fluorescence intensity>
5500

$$$$
>  <Binder>
S009-F8-19.21 (antibody, human IgG1, kappa, V domains shown, human-murine chimeric antibody, human IgG1/kappa constant regions) VH: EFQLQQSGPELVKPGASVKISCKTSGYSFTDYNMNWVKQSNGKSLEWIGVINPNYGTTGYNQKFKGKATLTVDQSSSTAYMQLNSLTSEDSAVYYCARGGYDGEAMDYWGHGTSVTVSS VL: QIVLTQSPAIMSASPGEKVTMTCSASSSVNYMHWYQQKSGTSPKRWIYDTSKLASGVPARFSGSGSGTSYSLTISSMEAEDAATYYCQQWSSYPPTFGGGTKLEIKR

>  <Maximum mean fluorescence intensity>
13000

$$$$

Read the next record carefully.
Lookup: Quick check: Maximum mean fluorescence intensity of S009-F8-36.12 (antibody, human IgG1, kappa, V domains shown, human-murine chimeric antibody, human IgG1/kappa constant regions) VH: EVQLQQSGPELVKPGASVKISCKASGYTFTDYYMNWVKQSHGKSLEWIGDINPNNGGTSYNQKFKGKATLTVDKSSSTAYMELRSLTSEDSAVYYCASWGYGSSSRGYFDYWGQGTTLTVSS VL: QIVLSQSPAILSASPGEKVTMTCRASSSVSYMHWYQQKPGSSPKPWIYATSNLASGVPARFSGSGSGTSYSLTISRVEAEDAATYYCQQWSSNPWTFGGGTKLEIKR ?
Found: 2510
